TEST SYSTEM: human PDE4B1 (Homo sapiens, UniProt Q07343)
Construct: host or cells: Sf9 cells
Sequence (Q07343 whole entry): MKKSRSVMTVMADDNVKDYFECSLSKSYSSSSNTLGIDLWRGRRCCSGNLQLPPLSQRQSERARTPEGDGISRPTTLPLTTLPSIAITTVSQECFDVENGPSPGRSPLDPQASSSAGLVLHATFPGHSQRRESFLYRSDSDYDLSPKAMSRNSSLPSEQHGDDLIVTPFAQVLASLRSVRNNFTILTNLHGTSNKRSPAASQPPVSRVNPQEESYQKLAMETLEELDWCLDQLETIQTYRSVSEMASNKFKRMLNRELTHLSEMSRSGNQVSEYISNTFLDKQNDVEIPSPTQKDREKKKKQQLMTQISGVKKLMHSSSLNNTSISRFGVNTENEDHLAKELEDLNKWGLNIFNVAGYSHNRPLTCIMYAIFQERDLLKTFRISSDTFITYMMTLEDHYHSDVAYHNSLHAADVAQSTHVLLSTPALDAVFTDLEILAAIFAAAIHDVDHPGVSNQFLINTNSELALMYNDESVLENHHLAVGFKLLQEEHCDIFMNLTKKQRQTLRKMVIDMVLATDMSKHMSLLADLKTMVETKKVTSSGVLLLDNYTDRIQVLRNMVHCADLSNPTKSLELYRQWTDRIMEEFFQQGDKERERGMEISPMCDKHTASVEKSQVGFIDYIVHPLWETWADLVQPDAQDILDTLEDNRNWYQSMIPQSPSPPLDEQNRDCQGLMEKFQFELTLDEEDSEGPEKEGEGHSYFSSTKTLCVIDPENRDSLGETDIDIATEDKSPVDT
ASSAY OVERVIEW: cAMP HTRF assay to determine the activity of hPDE4B1
Format: biochemical
SETUP CONDITIONS: Percentage inhibition of PDE4B at 1 μM test concentration
READOUT: inhibition at 1 µM (%)
The figure you give is taken to be in %; do not add the unit.

q: Fill in the blank: the reported inhibition at 1 µM of Cc1cccc(-c2nc3c(c(N4CCc5ccc(OCC(=O)N(C)C)cc54)n2)C[S+]([O-])C3)c1 (stereo not shown) [2-95] is ____.
a: 113

q: Fill in the blank: the reported inhibition at 1 µM of COc1ccc(-c2nc3c(c(N4CCc5cc(CC(=O)O)ccc54)n2)C[S+]([O-])C3)cc1Cl (stereo not shown) [Compound No. 1-8] is ____.
a: 102

q: Fill in the blank: the reported inhibition at 1 µM of O=C(COc1ccc2c(c1)N(c1nc(-c3ccc(Cl)s3)nc3c1C[S+]([O-])C3)CC2)N1CCCC1 (stereo not shown) [Compound No. 2-116] is ____.
a: 121

q: Fill in the blank: the reported inhibition at 1 µM of COc1ccc(-c2nc3c(c(-n4ncc5cc(CC(=O)O)ccc54)n2)CCC3)cc1Cl [Compound No. 1-59] is ____.
a: 38

q: Fill in the blank: the reported inhibition at 1 µM of CN(C)C(=O)COc1ccc2c(c1)N(c1nc(-c3cccc(S(C)(=O)=O)c3)nc3c1C[S+]([O-])C3)CC2 (stereo not shown) [2-107] is ____.
a: 113

q: Fill in the blank: the reported inhibition at 1 µM of O=C(COc1ccc2c(c1)N(c1nc(-c3ccc(Cl)s3)nc3c1CS(=O)(=O)C3)CC2)N1CCOCC1 [Compound No. 2-125] is ____.
a: 85

q: Fill in the blank: the reported inhibition at 1 µM of COc1ccc(-c2nc3c(c(N4CCc5ccc(OCC(=O)N6CCCC6)cc54)n2)C[S+]([O-])C3)cc1F (stereo not shown) [Compound No. 2-119] is ____.
a: 107

----------
Can you tell me inhibition at 1 µM for the items I'm about to list?
TEST SYSTEM: human PDE4B1 (Homo sapiens, UniProt Q07343)
Construct: host or cells: Sf9 cells
ASSAY OVERVIEW: cAMP HTRF assay to determine the activity of hPDE4B1
Type: biochemical
SETUP CONDITIONS: Percentage inhibition of PDE4B at 1 μM test concentration
The figure you give is taken to be in %; do not add the unit.

q: Fill in the blank: the reported inhibition at 1 µM of COc1ccc(-c2nc3c(c(N4CCc5cc(CC(=O)O)ccc54)n2)CCC3)cc1F is ____.
a: 102

q: Fill in the blank: the reported inhibition at 1 µM of CN(C)C(=O)COc1ccc2c(c1)N(c1nc(-c3ccc(F)cc3)nc3c1C[S+]([O-])C3)CC2 (stereo not drawn) is ____.
a: 104

q: Fill in the blank: the reported inhibition at 1 µM of CN(C)C(=O)COc1ccc2c(c1)N(c1nc(-c3ccc4sccc4c3)nc3c1C[S+]([O-])C3)CC2 (stereo not drawn) is ____.
a: 102

q: Fill in the blank: the reported inhibition at 1 µM of COc1ccc(-c2nc3c(c(-n4ncc5cc(CC(=O)O)ccc54)n2)CCC3)cc1F is ____.
a: 67

q: Fill in the blank: the reported inhibition at 1 µM of CN(C)C(=O)COc1ccc2c(c1)N(c1nc(-c3ccc4c(c3)OCO4)nc3c1C[S+]([O-])C3)CC2 (stereo not drawn) is ____.
a: 95

q: Fill in the blank: the reported inhibition at 1 µM of CN(C)C(=O)COc1ccc2c(c1)N(c1nc(-c3ccc(C(N)=O)s3)nc3c1CCC3)CC2 is ____.
a: 99

q: Fill in the blank: the reported inhibition at 1 µM of CN(C)C(=O)COc1ccc2c(c1)N(c1nc(-c3ccccc3C(F)(F)F)nc3c1C[S+]([O-])C3)CC2 (stereo not drawn) is ____.
a: 93

q: Fill in the blank: the reported inhibition at 1 µM of CN(C)C(=O)COc1ccc2c(c1)N(c1nc(-c3ccncc3)nc3c1CS(=O)(=O)C3)CC2 is ____.
a: 91

q: Fill in the blank: the reported inhibition at 1 µM of O=C(O)c1ccc2ncn(-c3nc(-c4ccc(Cl)s4)nc4c3CCC4)c2c1 (single isomer, unassigned) is ____.
a: 31

q: Fill in the blank: the reported inhibition at 1 µM of CN1CCN(C(=O)COc2ccc3c(c2)N(c2nc(-c4ccc(Cl)s4)nc4c2CS(=O)(=O)C4)CC3)CC1 is ____.
a: 95

q: Fill in the blank: the reported inhibition at 1 µM of CN(C)C(=O)COc1ccc2cnn(-c3nc(-c4ccc(Cl)s4)nc4c3C[S+]([O-])C4)c2c1 (stereo not drawn) is ____.
a: 102

q: Fill in the blank: the reported inhibition at 1 µM of NC(=O)Cc1ccc2c(c1)CCN2c1nc(-c2ccc(Cl)s2)nc2c1CS(=O)(=O)C2 is ____.
a: 103

q: Fill in the blank: the reported inhibition at 1 µM of CN(C)C(=O)COc1ccc2c(c1)N(c1nc(-c3ccc(F)c(F)c3)nc3c1CS(=O)(=O)C3)CC2 is ____.
a: 85

q: Fill in the blank: the reported inhibition at 1 µM of CN(C)C(=O)COc1ccc2c(c1)N(c1nc(-c3ccc4cc[nH]c4c3)nc3c1C[S+]([O-])C3)CC2 (stereo not drawn) is ____.
a: 86

q: Fill in the blank: the reported inhibition at 1 µM of CN(C)C(=O)COc1ccc2c(c1)N(c1nc(-c3ccc(C#N)s3)nc3c1CS(=O)(=O)C3)CC2 is ____.
a: 97

----------
Can you tell me inhibition at 1 µM for the items I'm about to list?
TEST SYSTEM: human PDE4B1 (Homo sapiens)
Construct: host or cells: Sf9 cells
ASSAY OVERVIEW: cAMP HTRF assay to determine the activity of hPDE4B1
Type: biochemical
SETUP CONDITIONS: Percentage inhibition of PDE4B at 1 μM test concentration
The figure you give is taken to be in %; do not add the unit.

q: Which inhibition at 1 µM is reported with human PDE4B1 (Homo sapiens) for this entry: CN(C)C(=O)COc1ccc2c(c1)N(c1nc(-c3ccc4ccncc4c3)nc3c1C[S+]([O-])C3)CC2 (stereo not drawn) [2-150] ?
a: 126

q: Which inhibition at 1 µM is reported with human PDE4B1 (Homo sapiens) for this entry: O=C(O)c1ccc2c(c1)oc(=O)n2-c1nc(-c2ccc(Cl)s2)nc2c1CCC2 [Compound No. 1-68] ?
a: 34

q: Which inhibition at 1 µM is reported with human PDE4B1 (Homo sapiens) for this entry: CN(C)C(=O)COc1ccc2c(c1)N(c1nc(-c3cccc(C#N)c3)nc3c1C[S+]([O-])C3)CC2 (stereo not drawn) [2-98] ?
a: 98

q: Which inhibition at 1 µM is reported with human PDE4B1 (Homo sapiens) for this entry: CN(C)C(=O)COc1ccc2c(c1)N(c1nc(-c3ccc(F)s3)nc3c1CCC3)CC2 [Compound No. 2-46] ?
a: 94

q: Which inhibition at 1 µM is reported with human PDE4B1 (Homo sapiens) for this entry: CN(CC1CC1)C(=O)COc1ccc2c(c1)N(c1nc(-c3ccc(Cl)s3)nc3c1CS(=O)(=O)C3)CC2 [Compound No. 2-57] ?
a: 89

q: Which inhibition at 1 µM is reported with human PDE4B1 (Homo sapiens) for this entry: CN(C)C(=O)COc1ccc2c(c1)N(c1nc(-c3cncnc3)nc3c1C[S+]([O-])C3)CC2 (stereo not drawn) [2-144] ?
a: 92

q: Which inhibition at 1 µM is reported with human PDE4B1 (Homo sapiens) for this entry: CN(C)C(=O)COc1ccc2c(c1)N(c1nc(-c3ccc(Br)c(F)c3)nc3c1C[S+]([O-])C3)CC2 (stereo not drawn) [Compound No. 2-86] ?
a: 111

q: Which inhibition at 1 µM is reported with human PDE4B1 (Homo sapiens) for this entry: O=C(O)Cc1ccc2c(c1)CCN2c1nc(-c2ccc(Cl)s2)nc2c1CSC2 [Compound No. 1-20] ?
a: 92

q: Which inhibition at 1 µM is reported with human PDE4B1 (Homo sapiens) for this entry: CN(C)C(=O)COc1ccc2c(c1)N(c1nc(-c3ccccc3F)nc3c1C[S+]([O-])C3)CC2 (stereo not drawn) [2-100] ?
a: 100

q: Which inhibition at 1 µM is reported with human PDE4B1 (Homo sapiens) for this entry: CNC(=O)COc1ccc2c(c1)N(c1nc(-c3ccc(Cl)s3)nc3c1CCC3)CC2 [Compound No. 2-70] ?
a: 23

q: Which inhibition at 1 µM is reported with human PDE4B1 (Homo sapiens) for this entry: CCOc1ccc(-c2nc3c(c(N4CCc5ccc(OCC(=O)N(C)C)cc54)n2)C[S+]([O-])C3)cc1 (stereo not drawn) [2-110] ?
a: 119

q: Which inhibition at 1 µM is reported with human PDE4B1 (Homo sapiens) for this entry: CN(C)C(=O)COc1ccc2c(c1)N(c1nc(-c3ccc(O)c(F)c3)nc3c1C[S+]([O-])C3)CC2 (stereo not drawn) [Compound No. 2-79] ?
a: 92

q: Which inhibition at 1 µM is reported with human PDE4B1 (Homo sapiens) for this entry: O=C(O)Cc1ccc2c(c1)CCN2c1nc(-c2csc(Cl)c2)nc2c1CCC2 [Compound No. 1-19] ?
a: 85

q: Which inhibition at 1 µM is reported with human PDE4B1 (Homo sapiens) for this entry: CN(C)C(=O)COc1ccc2c(c1)N(c1nc(-c3ccc(Cl)s3)nc3c1CS(=O)(=O)C3)CC2 [Compound No. 2-45] ?
a: 105

q: Which inhibition at 1 µM is reported with human PDE4B1 (Homo sapiens) for this entry: CN(C)C(=O)COc1ccc2c(c1)N(c1nc(-c3ccncc3)nc3c1C[S+]([O-])C3)CC2 (stereo not drawn) [Compound No. 2-135] ?
a: 97

q: Which inhibition at 1 µM is reported with human PDE4B1 (Homo sapiens) for this entry: CN(C)CCOc1ccc2c(c1)N(c1nc(-c3ccc(Cl)s3)nc3c1CCC3)CC2 [Compound No. 3-7] ?
a: 48

q: Which inhibition at 1 µM is reported with human PDE4B1 (Homo sapiens) for this entry: Cc1ncc(-c2nc3c(c(N4CCc5ccc(OCC(=O)N(C)C)cc54)n2)C[S+]([O-])C3)s1 (stereo not drawn) [Compound No. 2-140] ?
a: 95

q: Which inhibition at 1 µM is reported with human PDE4B1 (Homo sapiens) for this entry: CN(C)C(=O)COc1ccc2c(c1)N(c1nc(-c3ccccc3Cl)nc3c1C[S+]([O-])C3)CC2 (stereo not drawn) [2-96] ?
a: 107

q: Which inhibition at 1 µM is reported with human PDE4B1 (Homo sapiens) for this entry: CN(C)C(=O)COc1ccc2ncn(-c3nc(-c4ccc(Cl)s4)nc4c3C[S+]([O-])C4)c2c1 (single isomer, unassigned) [Compound No. 2-74] ?
a: 80

q: Which inhibition at 1 µM is reported with human PDE4B1 (Homo sapiens) for this entry: O=C(O)Cc1ccc2c(c1)CC(=O)N2c1nc(-c2ccc(Cl)s2)nc2c1CCC2 [Compound No. 1-64] ?
a: 28

q: Which inhibition at 1 µM is reported with human PDE4B1 (Homo sapiens) for this entry: CN(C)C(=O)COc1ccc2oc(=O)n(-c3nc(-c4ccc(Cl)s4)nc4c3C[S+]([O-])C4)c2c1 (stereo not drawn) [2-76] ?
a: 62

q: Which inhibition at 1 µM is reported with human PDE4B1 (Homo sapiens) for this entry: O=C(O)Cc1ccc2c(c1)CCN2c1nc(-c2ccc(F)s2)nc2c1CSC2 [Compound No. 1-23] ?
a: 93

q: Which inhibition at 1 µM is reported with human PDE4B1 (Homo sapiens) for this entry: CN(C)C(=O)COc1ccc2c(c1)N(c1nc(-c3ccc(C#N)c(F)c3)nc3c1C[S+]([O-])C3)CC2 (stereo not drawn) [Compound No. 2-77] ?
a: 92

q: Which inhibition at 1 µM is reported with human PDE4B1 (Homo sapiens) for this entry: COc1ccc(-c2nc3c(c(N4CCc5ccc(OCC(=O)N(C)C)cc54)n2)CS(=N)(=O)C3)cc1F (stereo not drawn) [Compound No. 2-115] ?
a: 106

q: Which inhibition at 1 µM is reported with human PDE4B1 (Homo sapiens) for this entry: COc1cc(-c2nc3c(c(N4CCc5ccc(OCC(=O)N(C)C)cc54)n2)C[S+]([O-])C3)ccc1Cl (stereo not drawn) [2-111] ?
a: 72

q: Which inhibition at 1 µM is reported with human PDE4B1 (Homo sapiens) for this entry: O=C(COc1ccc2c(c1)N(c1nc(-c3ccc(Cl)s3)nc3c1CCC3)CC2)N1CCOCC1 [Compound No. 2-128] ?
a: 85

q: Which inhibition at 1 µM is reported with human PDE4B1 (Homo sapiens) for this entry: NC(=O)COc1ccc2c(c1)N(c1nc(-c3ccc(Cl)s3)nc3c1CS(=O)(=O)C3)CC2 [Compound No. 2-59] ?
a: 76

q: Which inhibition at 1 µM is reported with human PDE4B1 (Homo sapiens) for this entry: O=C(O)Cc1ccc2c(c1)CCN2c1nc(-c2ccc(F)s2)nc2c1CCC2 [Compound No. 1-15] ?
a: 100

q: Which inhibition at 1 µM is reported with human PDE4B1 (Homo sapiens) for this entry: COC(=O)COc1ccc2c(c1)N(c1nc(-c3ccc(Cl)s3)nc3c1CCC3)CC2 [Compound No. 1-79] ?
a: 88

q: Which inhibition at 1 µM is reported with human PDE4B1 (Homo sapiens) for this entry: COc1ncccc1-c1nc2c(c(N3CCc4ccc(OCC(=O)N(C)C)cc43)n1)C[S+]([O-])C2 (stereo not drawn) [2-105] ?
a: 77
